Parameter: AUC(0-inf). Scope: all listed entries.
Assay: Pharmacokinetic analyses in mouse
Type: in vivo
Conditions: mouse, plasma, iv, 5 mg/kg, 5 mg/kg i.v.; individual animals; read-out: AUCinf
Please respond with the number in µM·h and leave the unit unwritten.

Molecule	Result
Cc1ncsc1-c1ccc([C@H](CCCCCN2CCC(c3ccc4c(c3)n(C3CCCC3)c3nc(=O)c5c(Br)cccc5n43)CC2)NC(=O)[C@@H]2C[C@@H](O)CN2C(=O)[C@@H](NC(=O)C2(F)CC2)C(C)(C)C)cc1 [compound 11]	30.6

Given item Cc1ncsc1-c1ccc(C(CCC(C)CCN2CCC(c3ccc4c(c3)n(C3CCCC3)c3nc(=O)c5c(Br)cccc5n43)CC2)NC(=O)C2CC(O)CN2C(=O)C(NC(=O)C2(F)CC2)C(C)(C)C)cc1 (centres unmarked) [ACBI2] , the value recorded as its AUC(0-inf) is 34.7
